Reported viability, T/C values for a set of compounds
test system: 845751-090-R-J2-PDC tumor spheroid viability; experiment: Anticancer human tumor 845751-090-R-J2-PDC patient-derived head and neck squamous carcinoma cell line growth inhibition [IpAb]; conditions: second compound 0.0316 µM; first compound 3.16 µM; active compounds read low; spheroids with HUVEC and MSC

compound: Cn1nccc1Nc1nccc(-c2ccn(C(CO)c3ccc(Cl)c(F)c3)c(=O)c2)n1 (configuration not stated) + CCN1CCN(Cc2ccc(Nc3ncc(F)c(-c4cc(F)c5nc(C)n(C(C)C)c5c4)n3)nc2)CC1
viability, T/C / %: 169
//
compound: CC1(C)CCC(CN2CCN(c3ccc(C(=O)NS(=O)(=O)c4ccc(NCC5CCOCC5)c([N+](=O)[O-])c4)c(Oc4cnc5[nH]ccc5c4)c3)CC2)=C(c2ccc(Cl)cc2)C1 + CCN1CCN(Cc2ccc(Nc3ncc(F)c(-c4cc(F)c5nc(C)n(C(C)C)c5c4)n3)nc2)CC1
viability, T/C / %: 137
//
compound: C=CCn1c(=O)c2cnc(Nc3ccc(N4CCN(C)CC4)cc3)nc2n1-c1cccc(C(C)(C)O)n1 + CCN1CCN(Cc2ccc(Nc3ncc(F)c(-c4cc(F)c5nc(C)n(C(C)C)c5c4)n3)nc2)CC1
viability, T/C / %: 53.1
//
compound: C=CC(=O)N1CCN(c2nc(=O)n(-c3c(C)ccnc3C(C)C)c3nc(-c4c(O)cccc4F)c(F)cc23)C(C)C1 (configuration not stated) + CCN1CCN(Cc2ccc(Nc3ncc(F)c(-c4cc(F)c5nc(C)n(C(C)C)c5c4)n3)nc2)CC1
viability, T/C / %: 43.3
//
compound: Cc1nc(NC(=O)N2CCCC2C(N)=O)sc1-c1ccnc(C(C)(C)C(F)(F)F)c1 (configuration not stated) + CCN1CCN(Cc2ccc(Nc3ncc(F)c(-c4cc(F)c5nc(C)n(C(C)C)c5c4)n3)nc2)CC1
viability, T/C / %: 15.5
//
compound: Cn1ncc(Cl)c1-c1cc(C(=O)NC(CN)Cc2cccc(F)c2)sc1Cl (configuration not stated) + CCN1CCN(Cc2ccc(Nc3ncc(F)c(-c4cc(F)c5nc(C)n(C(C)C)c5c4)n3)nc2)CC1
viability, T/C / %: 8.85
//
compound: CCCS(=O)(=O)Nc1ccc(F)c(C(=O)c2c[nH]c3ncc(-c4ccc(Cl)cc4)cc23)c1F + CCN1CCN(Cc2ccc(Nc3ncc(F)c(-c4cc(F)c5nc(C)n(C(C)C)c5c4)n3)nc2)CC1
viability, T/C / %: 30.9

###

test system: 845751-090-R-J2-PDC tumor spheroid viability; test: Anticancer human tumor 845751-090-R-J2-PDC cell line growth inhibition [IpAb]; conditions: second compound 0.316 µM; first compound 10 µM; active compounds read low; spheroids with HUVEC and MSC;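 also: spheroids exposed to compounds for 7 days before readout; CTG3D luminescence normalised so that 100% = DMSO vehicle control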
propertyLabel: viability, T/C (%)

compound: Cn1ncc(Cl)c1-c1cc(C(=O)NC(CN)Cc2cccc(F)c2)sc1Cl (centres undefined) + CCN1CCN(Cc2ccc(Nc3ncc(F)c(-c4cc(F)c5nc(C)n(C(C)C)c5c4)n3)nc2)CC1
observed: 0.45
//
compound: C=CCn1c(=O)c2cnc(Nc3ccc(N4CCN(C)CC4)cc3)nc2n1-c1cccc(C(C)(C)O)n1 + CC(C)NCC(C(=O)N1CCN(c2ncnc3c2C(C)CC3O)CC1)c1ccc(Cl)cc1
observed: 28.4
//
compound: C=CCn1c(=O)c2cnc(Nc3ccc(N4CCN(C)CC4)cc3)nc2n1-c1cccc(C(C)(C)O)n1 + CCN1CCN(Cc2ccc(Nc3ncc(F)c(-c4cc(F)c5nc(C)n(C(C)C)c5c4)n3)nc2)CC1
observed: 49.1
//
compound: Cn1nccc1Nc1nccc(-c2ccn(C(CO)c3ccc(Cl)c(F)c3)c(=O)c2)n1 (centres undefined) + CCN1CCN(Cc2ccc(Nc3ncc(F)c(-c4cc(F)c5nc(C)n(C(C)C)c5c4)n3)nc2)CC1
observed: 106

Data credit: PubChem BioAssay AID2060333
